testedSystem: HMPV F protein (NL/1/00, A1 sublineage), on virus (human metapneumovirus)
testSummary: cell-based or functional assay
assayMetric: HMPV-A1 IC50 (µg/mL)
Write the answer as a number in µg/mL, unit excluded.

Ask: Quickly give me recorded HMPV-A1 IC50 for ADI-15647 (antibody, V domains shown) VH: QVQLVQSGAEVKKPGSSVRVSCEASGGTFSTYAISWVRQAPGLGLEWMGGIHPISGTANYAQSFQDRLTITVDKSTSTAYMDLSSLRSEDTAIYYCARVGLGRTWIYDTMGYLDYWGQGTLVTVSS VL: EIVLTQSPATLSLSPGERVTLSCRASQSVNDYLAWYQQKPGQAPRLLIYDASNRATGIPARFSGSGSGTDFTLTISSLEPEDFAVYYCQHRTNWPSLTFGGGTKVEIK
Result: 20.3
